target_entity: human GnRH receptor (Homo sapiens)
Construct: The cDNA for the human GnRH receptor is cloned into the plasmid expression vector, pcDNA 3; expressed in transfected cells; host or cells: HEK 293 cells, stably transfected (pcDNA 3); membrane preparation
Sequence (P30968 1-328): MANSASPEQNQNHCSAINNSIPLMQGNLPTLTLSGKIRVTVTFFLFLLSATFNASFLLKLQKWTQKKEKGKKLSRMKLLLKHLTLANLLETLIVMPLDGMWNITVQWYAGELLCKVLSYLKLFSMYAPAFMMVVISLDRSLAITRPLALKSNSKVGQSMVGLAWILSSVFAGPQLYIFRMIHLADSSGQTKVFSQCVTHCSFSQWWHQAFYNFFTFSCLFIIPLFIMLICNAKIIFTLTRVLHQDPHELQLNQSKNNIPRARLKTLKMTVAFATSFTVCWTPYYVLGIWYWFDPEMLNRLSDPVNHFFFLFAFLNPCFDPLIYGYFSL
experimental_protocol: GnRH receptor competitive radioligand binding assay (125I-GnRH-A, HEK 293 cell membranes)
condition: compound at 10 μM; crude compounds; 125I-GnRH-A; lower value = higher inhibition; read-out: % Remaining 1st Test (percent of specific binding remaining)

compound: CC(C)(C)c1ccc(CN(CCCCNC(=N)N)C(=O)c2ccc3ccccc3c2)cc1
remaining activity at 10 µM: 58%
--
compound: CC(C)(C)c1ccc(CN(CC2CCCC(CNC(=N)N)C2)C(=O)c2ccc3ccccc3c2)cc1 (stereo not drawn)
remaining activity at 10 µM: 54%
--
compound: Cc1cc2c(cc1CN(CC1CCCC(CNC(=N)N)C1)C(=O)c1ccc(Cl)nc1)C(C)(C)CCC2(C)C (stereo not drawn)
remaining activity at 10 µM: 57%
--
compound: CN(C)CCCOc1ccc(CN(CC2CCCC(CNC(=N)N)C2)C(=O)c2ccc3ccccc3c2)cc1 (stereo not drawn)
remaining activity at 10 µM: 45%
--
compound: N=C(N)NCC1CCCC(CN(Cc2ccc(OCc3ccccc3)c(OCc3ccccc3)c2)C(=O)C2CCCCC2)C1 (stereo not drawn)
remaining activity at 10 µM: 57%
--
compound: CN(C)Cc1ccc(CN(Cc2ccc(OCc3ccccc3)c(OCc3ccccc3)c2)C(=O)c2ccco2)cc1
remaining activity at 10 µM: 47%
--
compound: CC(=O)O[C@@H](C)C(=O)N(Cc1cc2c(cc1C)C(C)(C)CCC2(C)C)CC1CCC(CNC(=N)N)CC1 (stereo partly drawn)
remaining activity at 10 µM: 57%
--
compound: CC(C)(C)c1ccc(CN(CC2CCCC(CNC(=N)N)C2)C(=O)c2cccc3ccccc23)cc1 (stereo not drawn)
remaining activity at 10 µM: 46%
--
compound: CC(=O)N(Cc1ccc(OCc2ccccc2)c(OCc2ccccc2)c1)CC1CCCC(CNC(=N)N)C1 (stereo not drawn)
remaining activity at 10 µM: 49%
--
compound: CN(C)COc1ccc(CN(CC2CCC(CNC(=N)N)CC2)C(=O)c2cc3ccccc3s2)cc1 (stereo not drawn)
remaining activity at 10 µM: 51%
--
compound: CC(C)(C)c1ccc(CN(CC2CCC(CNC(=N)N)CC2)C(=O)C2CCCC2)cc1 (stereo not drawn)
remaining activity at 10 µM: 59%
--
compound: Cc1cc2c(cc1CN(CC1CCC(CNC(=N)N)CC1)C(=O)c1cnn(-c3ccccc3)c1C(F)(F)F)C(C)(C)CCC2(C)C (stereo not drawn)
remaining activity at 10 µM: 62%
--
compound: N=C(N)NCc1cccc(CN(CC23CC=CCC2C2CC=CCC2O3)C(=O)C2CCCCC2)c1 (stereo not drawn)
remaining activity at 10 µM: 59%
--
compound: N=C(N)NCC1CCC(CN(Cc2cccc(Oc3ccc(Cl)cc3)c2)C(=O)c2ccc(Cl)nc2)CC1 (stereo not drawn)
remaining activity at 10 µM: 60%
--
compound: CC(=O)N(Cc1ccc(CNC(=N)N)cc1)Cc1cc2c(cc1C)C(C)(C)CCC2(C)C
remaining activity at 10 µM: 58%

* * *

target_entity: human GnRH receptor (Homo sapiens, UniProt P30968)
Construct: The cDNA for the human GnRH receptor is cloned into the plasmid expression vector, pcDNA 3; expressed in transfected cells; host or cells: HEK 293 cells, stably transfected (pcDNA 3); membrane preparation
experimental_protocol: GnRH receptor competitive radioligand binding assay (125I-GnRH-A, HEK 293 cell membranes)
condition: compound at 10 μM; crude compounds; 125I-GnRH-A; lower value = higher inhibition; read-out: % Remaining 2nd Test (percent of specific binding remaining)

compound: Cc1cc2c(cc1CN(CC1CCCC(CNC(=N)N)C1)C(=O)c1ccc3ccccc3c1)C(C)(C)CCC2(C)C (stereo not shown)
remaining activity at 10 µM [%]: 59
--
compound: N=C(N)NCC1CCCC(CN(CC23CC=CCC2C2CC=CCC2O3)C(=O)c2cccc3ccccc23)C1 (stereo not shown)
remaining activity at 10 µM [%]: 44
--
compound: CC(C)(C)c1ccc(CN(Cc2ccc(CNC(=N)N)cc2)C(=O)c2cccc3ccccc23)cc1
remaining activity at 10 µM [%]: 57
--
compound: CCOc1cc(OCC)c(OCC)cc1CN(CC1CCC(CNC(=N)N)CC1)C(=O)c1ccco1 (stereo not shown)
remaining activity at 10 µM [%]: 47

* * *

Below, each entry is listed with its recorded remaining activity at 10 µM.
target_entity: human GnRH receptor (Homo sapiens, UniProt P30968)
Construct: The cDNA for the human GnRH receptor is cloned into the plasmid expression vector, pcDNA 3; expressed in transfected cells; host or cells: HEK 293 cells, stably transfected (pcDNA 3); membrane preparation
experimental_protocol: GnRH receptor competitive radioligand binding assay (125I-GnRH-A, HEK 293 cell membranes)
condition: compound at 10 μM; average of 1st and 2nd test; read-out: Average % Remaining (percent of specific binding remaining)

compound: N=C(N)NCC1CCCC(CN(Cc2ccc(OCc3ccccc3)c(OCc3ccccc3)c2)C(=O)c2ccc(Cl)nc2)C1 (stereo not shown) [Compound 64]
remaining activity at 10 µM, %: 49

compound: CN(C)Cc1ccc(CN(Cc2ccc(OCc3ccccc3)c(OCc3ccccc3)c2)C(=O)c2ccco2)cc1 [Compound 70]
remaining activity at 10 µM, %: 45

compound: Cc1cc2c(cc1CN(CC1CCCC(CNC(=N)N)C1)C(=O)c1ccccc1)C(C)(C)CCC2(C)C (stereo not shown) [Compound 56]
remaining activity at 10 µM, %: 58

compound: N=C(N)NCC1CCC(CN(Cc2cc3c(cc2Cl)OCO3)C(=O)c2ccco2)CC1 (stereo not shown) [Compound 86]
remaining activity at 10 µM, %: 51

compound: N=C(N)NCc1ccc(CN(CC23CC=CCC2C2CC=CCC2O3)C(=O)c2cccs2)cc1 (stereo not shown) [Compound 6]
remaining activity at 10 µM, %: 46

compound: CN(C)CCCOc1ccc(CN(Cc2ccc(CNC(=N)N)cc2)C(=O)c2ccc3ccccc3c2)cc1 [Compound 3]
remaining activity at 10 µM, %: 55

compound: Cc1cc2c(cc1CN(CC1CCCC(CNC(=N)N)C1)C(=O)c1ccco1)C(C)(C)CCC2(C)C (stereo not shown) [Compound 55]
remaining activity at 10 µM, %: -2

compound: N=C(N)NCC1CCC(CN(CC23CC=CCC2C2CC=CCC2O3)C(=O)c2cc3ccccc3s2)CC1 (stereo not shown) [Compound 78]
remaining activity at 10 µM, %: 59

compound: N=C(N)NCC1CCCC(CN(Cc2cnc3ccccc3c2)C(=O)c2cccc3ccccc23)C1 (stereo not shown) [Compound 50]
remaining activity at 10 µM, %: 55

compound: Cc1cc2c(cc1CN(CC1CCC(CNC(=N)N)CC1)C(=O)c1ccc([N+](=O)[O-])o1)C(C)(C)CCC2(C)C (stereo not shown) [Compound 79]
remaining activity at 10 µM, %: 49

compound: CCCCN(CCCC)c1ccc(CN(CC2CCC(CNC(=N)N)CC2)C(=O)c2ccco2)cc1 (stereo not shown) [Compound 88]
remaining activity at 10 µM, %: 57

compound: CC(=O)N(CCCCNC(=N)N)Cc1ccc(OCc2ccccc2)c(OCc2ccccc2)c1 [Compound 35]
remaining activity at 10 µM, %: 52

compound: Cc1cc2c(cc1CN(CCCCNC(=N)N)C(=O)c1ccccc1)C(C)(C)CCC2(C)C [Compound 31]
remaining activity at 10 µM, %: 45

compound: CC(C)(C)c1ccc(CN(CC2CCC(CNC(=N)N)CC2)C(=O)c2ccco2)cc1 (stereo not shown) [Compound 71]
remaining activity at 10 µM, %: 60

compound: CN(C)Cc1ccc(CN(Cc2ccc(OCc3ccccc3)c(OCc3ccccc3)c2)C(=O)c2cccs2)cc1 [Compound 69]
remaining activity at 10 µM, %: 57

compound: N=C(N)NCC1CCCC(CN(CC23CC=CCC2C2CC=CCC2O3)C(=O)c2ccc3ccccc3c2)C1 (stereo not shown) [Compound 48]
remaining activity at 10 µM, %: 44
